Reference for the values: the Human Domainome abundance scans (Beltran et al. 2025)

Field: abundance fitness. Provide a value for each of the variants that follow.
B1: Gamma-crystallin S, residues 96 to 176; numbered along this chain, P22914 (parent)
chain: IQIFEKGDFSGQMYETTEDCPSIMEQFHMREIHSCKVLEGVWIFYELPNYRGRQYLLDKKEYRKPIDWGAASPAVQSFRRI

# Variants of: B1
# ASSAY_INFO: abundance fitness (aPCA) (normalised: wild type 0, dead -1); higher = more abundant; growth selection in yeast, the domain comes from the species named
# REPORTED_CONDITIONS: Homo sapiens
// keep it numeric: no unit symbol after the value

# abundance fitness of I23L = -0.152

# abundance fitness of V37I = -0.142

# abundance fitness of K6T = 0.007

# abundance fitness of Y45W = -0.065

# abundance fitness of E5G = -0.02

# abundance fitness of L38R = 0.004

# abundance fitness of T17M = -0.059

# abundance fitness of I43E = 0.117

# abundance fitness of R63A = -0.098

# abundance fitness of K36R = 0.022

# abundance fitness of D8L = 0.074

# abundance fitness of P48Q = -0.011

# abundance fitness of W42M = -0.231

# abundance fitness of S72Y = 0.173

# abundance fitness of A70M = -0.023

# abundance fitness of L47D = -0.093

# abundance fitness of R53Q = 0.073

# abundance fitness of K64P = -0.215

# abundance fitness of I23Q = -0.398

# abundance fitness of R51A = -0.004

# abundance fitness of M13H = 0.005

# abundance fitness of P48D = -0.038

# abundance fitness of S72A = -0.016

# abundance fitness of Q2S = 0.039

# abundance fitness of Q26F = -0.033

# abundance fitness of S34R = -0.623

# abundance fitness of R53G = -0.039

# abundance fitness of Y14M = -0.166

# abundance fitness of C20M = -0.008

# abundance fitness of I66M = -0.022

# abundance fitness of H28D = 0.027

# abundance fitness of P21C = -0.011

# abundance fitness of D8Y = 0.078

# abundance fitness of I3D = -0.705

# abundance fitness of I43K = -0.123

# abundance fitness of C35T = 0.074

# abundance fitness of P48F = -0.388

# abundance fitness of S77A = -0.003

# abundance fitness of P65W = -0.024

# abundance fitness of E46F = -0.584

# abundance fitness of L57N = -0.526

# abundance fitness of Q2M = -0.077

# abundance fitness of K59F = -0.107

# abundance fitness of G40D = -0.012

# abundance fitness of D67A = 0.149

# abundance fitness of R79Q = -0.058
